Entries and their melting point

Example cases with answers are listed next.
Tell me the measured melting point of CC(=O)N1C(=O)N(COCc2ccccc2)C(=O)C12c1ccccc1N(CC(C)C)C(=O)N2C (stereo not given) , please.
70 to 72 °C

// returns reported melting point for input COc1ccc(-c2nnc3c4ccccc4c(OC4CCNC4=O)nn23)cc1 (stereo not given)
290 to 293 °C

Fill in the blank: the reported melting point of `Clc1cccc2c(CCN3CCCCC3)c(-c3ccccc3)[nH]c12` is ____.
178 to 179 °C

Which melting point value belongs to `COc1ccc(-c2nc(O)c(C)s2)cc1` ?
149 to 150 °C

Find the recorded melting point belonging to `O=C1c2ccccc2CN1C1CCN(Cc2ccccc2)CC1` and report it.
116 to 118 °C

More entries:
Need melting point, item `CCOc1cc(OCC)cc(-c2c(Cl)ncn2-c2ccc(S(C)(=O)=O)cc2)c1`
227 to 231 °C

# lookup: melting point of `COC(=O)c1cccc(-c2cccc(Oc3cc(Cl)cc(Cl)c3)n2)c1`
125 to 126 °C

Report melting point for `O=c1nc(-c2cccc(-c3cccs3)n2)sc2ccccc12` please.
222 to 223 °C

Fill in: melting point of O=C1CCCC(c2ccc(Cl)cc2)O1 (stereo not given) is ___
110 to 111 °C

* * *

melting point reference

Reference set, count: 5
Find the recorded melting point belonging to `Cc1ccc(N2C(=O)c3ccccc3C2=O)nn1` and report it.
214 °C

Give its melting point value. Item: `CCOC(=O)C(=O)Nc1ccc(CC)cc1[N+](=O)[O-]`
110 to 112 °C

Look up melting point: `O=C(c1cccc([N+](=O)[O-])c1)c1ccc(Oc2ccccc2)c([N+](=O)[O-])c1`
135 to 136 °C

Endpoint output: melting point of `COP(=O)(CN[C@@H](Cc1ccc(-c2ccccc2)cc1)C(=O)O)OC` . Value?
133 to 136 °C

Endpoint output: melting point of `N#CN1CCC(c2n[nH]c3cc(F)ccc23)CC1` . Value?
143 to 145 °C

***
// query melting point value for entry `CC(C)OC(=O)c1cc(-n2c(=O)c3c(n(C)c2=O)CCC3)ccc1Cl`
148 to 150 °C

Which melting point value is on record for `CCOC(=O)NN=C(c1ccc(Cl)cc1)c1ccc(OP(=S)(OCC)OCC)cc1` ?
106 °C

Which melting point reading was recorded for the compound `C[C@@H](NC(=O)c1sc(-c2ccc(C#N)cc2)nc1C(F)(F)F)[C@](O)(Cn1cncn1)c1ccc(F)cc1F` ?
101 to 108 °C

So what's the measured melting point for this one? `COC(=O)[C@]1(C)Oc2ccccc2NC1=O`
153 to 157 °C

Which melting point value is on record for CN1CC(CCN(C)c2ccccc2)Oc2ncccc2C1=S (stereo unspecified) ?
164 to 165 °C

* * *

readout-label: melting point

# example entries with known answers
Looking for the measured melting point of CCOC(=O)C1=C(C)NC(CN2C(=O)c3ccccc3C2=O)=C(C(=O)OCC)C1c1ccccc1Cl (stereo unspecified) , can you help?
166 °C

// returns reported melting point for input `Cc1cc(C)c(C(=O)ON2C(C)(C)c3ccccc3C2(C)C)c(C)c1`
181 to 183 °C

Next:
Entry `O=c1[nH]nc2n1-c1ccc(N3CCCC3)nc1C(c1ccccc1Cl)=[N+]([O-])C2` : reported melting point = ?
200 °C

Reported melting point, molecule `O=S(=O)(N1CCCC1)N1CCN(c2ccnc(CO)n2)CC1` : ____
128 to 131 °C

Would you mind telling me what melting point value was observed for Cc1cccc(-c2n[nH]cc2-c2ccc(F)c(-c3ccc(C(C)O)cn3)c2)n1 (stereo unspecified) ?
149 to 151 °C

Look up melting point: `O=C(Nc1ccc(-n2nc(C(F)(F)F)cc2C(F)(F)F)cc1)c1c(F)c(F)cc(F)c1F`
235 to 237 °C

* * *

Catalogue of molecules with associated melting point

Value lookup for melting point; key = CCCN1C(=O)N(c2ccc(N3CCN(c4ccc(O)cc4)CC3)cc2)NC1C (stereo not drawn)
253 °C

What does the data say about its melting point? Entry: `CCC(=O)NNc1ccnc2c(NC(=O)c3c(Cl)cccc3Cl)cccc12`
246 to 248 °C

Which melting point value is on record for `CCc1nnc(C(CCN2CC3CCC2CC3)(c2ccccc2)c2ccccc2)o1` ?
96 to 98.5 °C

melting point for COc1ccc2[nH]cc(C(C)N3CCCCC3=O)c2c1 (stereo not drawn) ?
150 °C

Could you share which melting point value was measured for O=C1c2ccc(CCCCc3ccccc3)cc2CCN1OC1CCCCO1 (stereo not drawn) ?
62 to 64 °C

New cases:
Entry `CCOC(=O)NNc1ccnc2c(NC(=O)c3c(Cl)cccc3Cl)cccc12` has what melting point?
151 to 155 °C

For the molecule shown here, `CSc1ccc(C=C2C=CC=C2)cc1` , give the reported melting point.
105 to 106 °C

Field request: melting point | item: Cc1nc(-c2ccc(CN3C(=O)C4(COc5cc6c(cc54)CCO6)c4ccccc43)cc2)no1 (stereo not drawn)
185 to 186 °C

Reported melting point, molecule Cc1oc(-c2ccccc2)nc1CCOc1ccc(CC(Nc2ccccc2C(=O)c2ccccc2)C(=O)O)c2sccc12 (stereo not drawn) : ____
124 to 127 °C

Reported melting point, molecule Cc1c(NC(=O)CC(C)(C)C)cc2c(c1C)OC(C)(C)C2(O)Cc1ccccc1 (stereo not drawn) : ____
212 to 213 °C

# query: melting point of entry `CS(=O)(=O)c1cccc(C2=C(C3CCCC3)CCC2=NO)c1`
164 to 165 °C

So what's the measured melting point for this one? `COc1ccc(C(=O)Nc2ccc(C3(CNC(=O)c4cscn4)CCCC3)cc2)cc1OC`
101 to 104 °C

Recorded melting point of `CC(C)(C)c1cc2c(c(-c3nc4ccc(S(=O)(=O)C(F)(F)F)cc4c(=O)[nH]3)c1O)CCO2` , please.
235 to 237 °C

Need melting point, item `Cn1cnc2c1c(=O)n(CCCCCCOc1ccc(Cl)cc1)c(=O)n2C`
97 to 98 °C

I'd like to know its melting point. The molecule in question is `CC(=O)NCC[C@@H]1CCc2ccc3nn(C)c(Cl)c3c21`
168 to 171 °C

Would you kindly share the measured melting point for `CCOC(=O)c1cn(C)c2cnc3cc(F)c(F)cc3c2c1=O` ?
272 °C

* * *

Listed here are molecules together with their documented melting point.

// returns reported melting point for input `Cc1ccccc1-n1ccnc1SCCCO`
47 to 48 °C

Can you share its melting point? I mean this molecule: `COC(=O)c1ccc(Cn2c(=O)c3cc(C(=O)NCc4ccc(OC)cc4)sc3n(C)c2=O)cc1C`
179 to 181 °C

Which melting point value is on record for `CC(C)Oc1ccc(S(=O)(=O)c2c(O)cccc2F)c([N+](=O)[O-])c1` ?
117 to 119 °C

What value of measured melting point is listed for O=C(c1nn(-c2ccc(F)cc2F)c2c1C1CCC2C1)N1CCCc2ccccc21 (stereo unspecified) ?
103 to 107 °C

Fill in the blank: the reported melting point of `C=COC(=O)N=c1sc2cc(OC(F)(F)F)ccc2n1CCO` is ____.
190 °C

Next:
Which value of melting point has been reported for `COC(=O)C1=Cc2cccc(C3CCN(S(=O)(=O)c4ccc(C)cc4)CC3)c2CCC1` in the records?
169 to 173 °C

* * *

melting point for assorted compounds

Before answering, review these 4 worked examples.
Would you mind telling me what melting point value was observed for `CS(=O)(=O)N1CCn2c(nc3c(N)nc4cc(Br)ccc4c32)C1` ?
315 to 317 °C

Would you mind telling me what melting point value was observed for `NCC(=O)c1ncn(Cc2ccccc2)c1N` ?
156 to 162 °C

# get_value(readout='melting point', item= `CC(=O)N1CCc2cc(CCN3CCC(c4noc5cc(F)ccc45)CC3)sc2C1` )
130 to 132 °C

Please give the measured melting point for this compound: CCOC(=O)CC[C@H](NC(=O)c1ccc(CCC2CNc3nc(NC(=O)C(C)(C)C)[nH]c(=O)c3C2)s1)C(=O)OCC (stereo not given in full)
169 to 170 °C

New cases:
Given the entry `Cc1nc2sc(Cl)cn2c(=O)c1O` , report its measured melting point.
214 to 217 °C

Query: melting point; subject: `CSc1ccc(-c2cc(C(F)F)nn2-c2ccc(S(N)(=O)=O)cc2)cc1`
157 to 158 °C

Suppose we examine the compound `O=c1[nH]c2ccc(C(F)(F)F)cc2c(-c2cc(Cl)ccc2O)c1CO` ; what melting point value has been reported?
> 250 °C

melting point for `COC(=O)c1cc(-c2ccc(F)c(C)c2)nn(CC(C)C)c1=O` ?
71.4 to 73.8 °C

For `Cc1nc(N2CCN(Cc3ccc(OC(F)(F)F)cc3)C2=O)sc1C(=O)NCc1ccccc1` , what is its reported melting point?
197 to 198 °C

Can you look up the measured melting point of `O=C1N(c2ccccc2Br)Cc2cnc(Nc3ccccc3)nc2N1c1ccc(CO)cc1` for me?
129 to 132 °C
